- SYSTEM UNDER TEST: human plasma kallikrein (Homo sapiens (Human))
- REPORTED CONDITIONS: human plasma kallikrein 25 pM, substrate 0.5 uM, 1 hour pre-incubation at room temperature, read at t=60 min
pIC50: −log10 of the molar value.
Listed here: items and their measured pIC50.

- MOL SMILES: "Cc1cn(Cc2ccccc2)cc1C(=O)NCc1c(C)cc(N)nc1C"
  VALUE PREFIX: "="
  pIC50: 6.02
- MOL SMILES: "Nc1ccc(CNC(=O)c2cnn(Cc3ccccc3)c2)cn1"
  VALUE PREFIX: "<"
  pIC50: 4.00
- MOL SMILES: "Cc1cc(N)nc(C)c1CNC(=O)c1sc(Cc2ccccc2)nc1C"
  VALUE PREFIX: "="
  pIC50: 5.20

----------
- SYSTEM UNDER TEST: human plasma kallikrein (Homo sapiens (Human), UniProt P03952)
- Sequence (P03952 whole entry, looked up): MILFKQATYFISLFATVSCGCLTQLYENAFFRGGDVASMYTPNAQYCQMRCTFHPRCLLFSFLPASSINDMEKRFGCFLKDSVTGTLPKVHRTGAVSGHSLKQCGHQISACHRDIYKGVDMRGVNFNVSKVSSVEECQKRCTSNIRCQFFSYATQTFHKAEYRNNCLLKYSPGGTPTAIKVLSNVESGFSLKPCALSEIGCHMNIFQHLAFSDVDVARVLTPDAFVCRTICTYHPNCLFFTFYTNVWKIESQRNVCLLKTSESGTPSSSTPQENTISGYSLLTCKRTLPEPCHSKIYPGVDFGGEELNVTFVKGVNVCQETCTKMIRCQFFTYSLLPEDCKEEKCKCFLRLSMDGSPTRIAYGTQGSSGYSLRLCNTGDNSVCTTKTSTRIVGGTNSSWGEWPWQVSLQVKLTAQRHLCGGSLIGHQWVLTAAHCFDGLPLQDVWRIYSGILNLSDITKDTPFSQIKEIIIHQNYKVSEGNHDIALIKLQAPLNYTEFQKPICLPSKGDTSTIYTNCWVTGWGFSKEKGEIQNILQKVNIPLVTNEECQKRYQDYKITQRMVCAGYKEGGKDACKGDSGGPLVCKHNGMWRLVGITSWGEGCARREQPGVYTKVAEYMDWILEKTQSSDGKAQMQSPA
- Sequence (P03952 whole entry partner, looked up): as the sequence (P03952 whole entry, looked up) above
- REPORTED CONDITIONS: human plasma kallikrein 25 pM, substrate 0.5 uM, 1 hour pre-incubation at room temperature, read at t=60 min
pIC50: −log10 of the molar value.
Each record here notes measured pIC50.

- MOL SMILES: "Cc1cc(C)n(-c2ccc(S(=O)(=O)n3ccc(C(=O)NCc4c(C)cc(N)nc4C)c3)cc2)n1"
  pIC50: 6.71
- MOL SMILES: "Cc1cc(N)nc(C)c1CNC(=O)c1cn(Cc2cccc(-n3cccn3)c2)nn1"
  pIC50: 6.84
- MOL SMILES: "Cc1cc(N)nc(C)c1CNC(=O)c1cnn(Cc2noc3ccccc23)c1"
  pIC50: 6.38
- MOL SMILES: "Cc1cc(N)nc(C)c1CNC(=O)c1coc(Cc2ccccc2)n1"
  pIC50: 5.42
- MOL SMILES: "Cc1cc(N)nc(C)c1CNC(=O)c1cn(Cc2c(F)cccc2F)nn1"
  pIC50: 5.44
